Values from patent US7173019B2

Collected Inhibition of binding of aFGF (Hep) values appear next to each entry.
target: aFGF (Homo sapiens); assay: Biacore biosensor: inhibition of aFGF binding to immobilised heparin and heparan sulfate; conditions: immobilised heparin; inhibitor 0.034 μM, aFGF 0.025 μM
Sequence (P05230 whole entry, species assumed): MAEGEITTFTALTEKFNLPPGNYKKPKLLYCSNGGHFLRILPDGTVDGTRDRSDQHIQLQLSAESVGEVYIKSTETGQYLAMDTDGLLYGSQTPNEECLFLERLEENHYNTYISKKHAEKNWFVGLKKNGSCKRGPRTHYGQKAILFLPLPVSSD

{"molecule": "O=S(=O)(O)OC1C=CC(N(CCCCCCN(C2C=CC(OS(=O)(=O)O)C(OS(=O)(=O)O)C2OS(=O)(=O)O)C2C=CC(OS(=O)(=O)O)C(OS(=O)(=O)O)C2OS(=O)(=O)O)C2C=CC(OS(=O)(=O)O)C(OS(=O)(=O)O)C2OS(=O)(=O)O)C(OS(=O)(=O)O)C1OS(=O)(=O)O (centres unmarked)", "Inhibition of binding of aFGF (Hep)": "44% (Hep)"}
{"molecule": "O=S(=O)(O)OC1C(OS(=O)(=O)O)C(OS(=O)(=O)O)C(N(Cc2cccc(CN(C3C(OS(=O)(=O)O)C(OS(=O)(=O)O)C(OS(=O)(=O)O)C(OS(=O)(=O)O)C3OS(=O)(=O)O)C3C(OS(=O)(=O)O)C(OS(=O)(=O)O)C(OS(=O)(=O)O)C(OS(=O)(=O)O)C3OS(=O)(=O)O)c2)C2C(OS(=O)(=O)O)C(OS(=O)(=O)O)C(OS(=O)(=O)O)C(OS(=O)(=O)O)C2OS(=O)(=O)O)C(OS(=O)(=O)O)C1OS(=O)(=O)O (centres unmarked)", "Inhibition of binding of aFGF (Hep)": "72% (Hep)"}
{"molecule": "O=S(=O)(O)OC1C=CC(N(Cc2cccc(CN(C3C=CC(OS(=O)(=O)O)C(OS(=O)(=O)O)C3OS(=O)(=O)O)C3C=CC(OS(=O)(=O)O)C(OS(=O)(=O)O)C3OS(=O)(=O)O)c2)C2C=CC(OS(=O)(=O)O)C(OS(=O)(=O)O)C2OS(=O)(=O)O)C(OS(=O)(=O)O)C1OS(=O)(=O)O (centres unmarked)", "Inhibition of binding of aFGF (Hep)": "65% (Hep)"}
{"molecule": "O=S(=O)(O)OC1C=CC(N(Cc2ccc(CN(C3C=CC(OS(=O)(=O)O)C(OS(=O)(=O)O)C3OS(=O)(=O)O)C3C=CC(OS(=O)(=O)O)C(OS(=O)(=O)O)C3OS(=O)(=O)O)cc2)C2C=CC(OS(=O)(=O)O)C(OS(=O)(=O)O)C2OS(=O)(=O)O)C(OS(=O)(=O)O)C1OS(=O)(=O)O (centres unmarked)", "Inhibition of binding of aFGF (Hep)": "66% (Hep)"}
{"molecule": "O=S(=O)(O)OC[C@H]1O[C@@](COS(=O)(=O)O)(O[C@H]2O[C@H](COS(=O)(=O)O)[C@@H](OS(=O)(=O)O)[C@H](OS(=O)(=O)O)[C@H]2OS(=O)(=O)O)[C@@H](OS(=O)(=O)O)[C@@H]1OS(=O)(=O)O [Sucrose octasulfate, reference compound]", "Inhibition of binding of aFGF (Hep)": "0% (Hep)"}
